Tested on: MOLT-4 leukemia
Experiment: NCI tumour cell line growth inhibition, 48 h
recorded_endpoint: TGI

The following molecules have reported results that may help.
Q: Which TGI is reported for this molecule? O=C1C(Cl)=C(Cl)C(=O)N1c1cccc(C(F)(F)F)c1
Result: > 86.6 µM

Q: Further, for CC(=O)N1C(CCc2ccccc2)CC(C)(C=O)C1Cc1ccc(O[Si](C(C)C)(C(C)C)C(C)C)cc1 (stereo unspecified) ?
Result: > 21.5 µM

Record TGI per entry; entries follow.
1. CNCC(=O)NC(CO)C(=O)NC(CO)C(=O)NC1C(C(N)=O)OC(n2ccc(N)nc2=O)C(O)C1O (stereo unspecified)
2. COc1ccc(C(OCC2OC3(COC(c4ccccc4)(c4ccc(OC)cc4)c4ccc(OC)cc4)C(Oc4nc(=O)ccn43)C2O)(c2ccccc2)c2ccc(OC)cc2)cc1 (stereo unspecified)
3. Cc1nc2sc(C(=O)Nc3ccccc3)c(N)c2cc1C(O)c1ccccc1 (stereo unspecified)
4. CCOC(=O)N/N=C(\CC)NO

Result:
["> 50 µg/mL", "> 100 µM", "25.5 µM", "> 100 µM"]

* * *

Please respond with reported TGI for every item in the list.
Tested on: SK-MEL-28 melanoma
Experiment: NCI tumour cell line growth inhibition, 48 h

Q: Which TGI is reported for this compound? Nc1n[nH]c2c(C(=O)Nc3ccc(Cl)cc3)c(N)n(N)c(=O)c12
Result: > 100 µM

Q: Further, for CSC1(C(=O)O)C2CCC3C2CCC31 (centres undefined) ?
Result: > 100 µM

Q: Further, for NNC(=O)CCc1ccc2ccc3ccccc3c2c1 ?
Result: > 100 µM

Q: Further, for c1csc(-c2ccc(CNc3c4ccccc4nc4ccccc34)cc2)c1 ?
Result: 3.28 µM

Q: Further, for O=C(COC(=O)c1cccc2c(=O)c3ccccc3[nH]c12)Nc1ccc(Cl)cc1 ?
Result: > 100 µM

Record TGI per entry; entries follow.
1. COc1cc2c(c(OC)c1OC)C(=O)[C@@H](O)[C@H]2NC(N)=O
2. CC(=O)N1C(=O)c2cc3ccccc3cc21
3. C=C1C(=O)O[C@H]2[C@H]1CC/C(COC(=O)CCCCCCCC(=O)OC/C1=C/CC[C@@]3(C)O[C@H]3[C@H]3OC(=O)C(=C)[C@@H]3CC1)=C\CC[C@@]1(C)O[C@@H]21

Result:
1: > 100 µM; 2: > 100 µM; 3: 11.4 µM

Record TGI per entry; entries follow.
1. O=C(/C=C/c1ccccc1)c1cc(C(=O)/C=C/c2ccccc2)c(O)cc1O
2. CC(C)(O)CCc1cccc(C(=O)c2cnn(-c3ccc(F)cc3)c2N)c1
3. CC(=O)NC1CC(C(C)(C)NC(C)=O)CC=C1C (centres undefined)
4. C[C@]12Cc3conc3C(O)=C1CC[C@@H]1C2CC[C@@]2(C)C1CC[C@]2(C)O (some centres undefined)
5. O=C(O)/C(Cl)=C(Cl)/C=N/NC(=O)c1cc2ccccc2cc1O
6. O=C1C=C(NCC(c2ccccc2)c2ccccc2)C(=O)c2ncccc21
7. COc1ccc(C[C@@H](C(=O)O[C@H](C)[C@H](NC(=O)[C@@H](CC(C)C)N(C)C(=O)C2CCCN2C(=O)[C@H](C)O)C(=O)N2CCCCNC(=O)[C@@H](C)C(=O)[C@H](C(C)C)OC(=O)C[C@H](O)[C@H]2CC(C)C)N(C)C(C)=O)cc1 (some centres undefined)
8. COC(=O)c1ccc(C(=O)OC)c2nc3cc(Cl)ccc3nc12

Result:
1. > 100 µM
2. > 25 µM
3. > 100 µM
4. 83 µM
5. > 100 µM
6. 10 µM
7. 22.6 µM
8. > 100 µM

Record TGI per entry; entries follow.
1. C[C@@]1(C(=O)O)CCC[C@]2(C)C1CC[C@]13C[C@@](O)(CO)[C@](O)(CC[C@]12O)C3 (some centres undefined)
2. CN(CCCN1C(=O)c2cccc3cc([N+](=O)[O-])cc(c23)C1=O)CCN(C)CCCN1C(=O)c2cccc3cc([N+](=O)[O-])cc(c23)C1=O
3. O=C(NNc1ccccc1)c1ccc(Cl)c(Cl)c1
4. CN(C)c1cc2c(Nc3ccc4c(cnn4Cc4ccccc4)c3)ncnc2cn1

Result:
1: > 100 µM; 2: > 39.3 µM; 3: > 100 µM; 4: > 25 µM

Record TGI per entry; entries follow.
1. C=C1CCC2[C@](C)(CCC[C@]2(C)C(=O)O)[C@@H]1CCc1ccoc1 (some centres undefined)
2. C#CCOc1cccc(Nc2ncnc3cc(NC(=O)C=C)ccc23)c1
3. O=C(O/N=c1/ccc(=O)/c(=N\OC(=O)c2ccccc2)c1=O)c1ccccc1

Result:
> 100 µM
> 100 µM
> 100 µM

Record TGI per entry; entries follow.
1. O=C(N/N=C/c1cc(Cl)ccc1O)c1ccccc1Nc1ccnc(C(F)(F)F)c1
2. COC(=O)CSc1nc2[nH]c(SC)c(C(N)=O)c2c(=O)n1-c1ccccc1

Result:
1: 15.1 µM; 2: > 10 µM

Record TGI per entry; entries follow.
1. CCO[C@@]12CCC3CC4CC[C@@](OCC)(O1)C4C32 (some centres undefined)
2. COc1ccc(/C=C\c2cc(OC)c(OC)c(OC)c2)cc1OC(=O)CC(N)C(=O)O (centres undefined)
3. Cc1ccc(C(C)C)c(OCC(=O)N/N=C/c2c[nH]c3ccc(Br)cc23)c1
4. COc1ccc(-c2c(-c3ccccc3)c(C)nc3[nH]c(=S)[nH]c(=S)c23)cc1OC

Result:
> 100 µM
> 100 µM
21.8 µM
52.8 µM
